System: Nakaseomyces glabratus
Experiment: Antifungal activity against Candida glabrata ATCC 66032 after 24 hrs by PrestoBlue dye based microdilution broth assay
Type: functional
Conditions: ATCC 66032, 24 h
Measured Quantity: pIC50
Lab note: report pIC50 as minus log10 of the concentration in molar units, number only.

>>> print(df.to_string())
                     smiles_text  measured_quantity  meas_value
0  O=C1/C(=C/c2ccccn2)Oc2ccccc21              pIC50        5.00

// switching to the query compound
Exercise: Any idea what pIC50 was measured for `COc1ccc(/C=C2\Oc3c(ccc(O)c3O)C2=O)cc1O` ?
Solution: 4.96

* * *

Tested on: Candida albicans
Assay: Antifungal activity against Candida albicans ATCC 90028 at 100 uM after 24 hrs by PrestoBlue dye based microdilution broth assay relative to control
Type: functional
Settings: ATCC 90028, 24 h
Examples of compounds with documented inhibition at 100 µM follow.
Mention the unit after the number when you answer.

The examples below pair each entry with its known result.
                             smiles_text  experimental_target  meas_value
0  COc1cc(Br)c(/C=C2\Oc3ccccc3C2=O)cc1OC     Candida albicans       12.5%
1       O=C1/C(=C/c2cccs2)Oc2c1ccc(O)c2O     Candida albicans         26%

Exercise: # query: inhibition at 100 µM of entry `O=C1/C(=C/c2ncc[nH]2)Oc2ccccc21`
Solution: 43.9%

Exercise: Query `COc1ccc(/C=C2\Oc3c(ccc(O)c3O)C2=O)cc1O` next
Solution: 99.4%

* * *

Tested on: Candida albicans
Test: Antifungal activity against Candida albicans ATCC 90028 at 100 uM after 24 hrs by PrestoBlue dye based microdilution broth assay relative to control
Format: functional
Conditions: ATCC 90028, 24 h
Recorded inhibition at 100 µM by entry
Please state the figure in %; there is no need to write the unit.

>>> print(df.to_string())
                           smiles_text     measured_quantity  meas_value
0     COc1cccc(/C=C2\Oc3ccccc3C2=O)c1O  inhibition at 100 µM        16.7
1  COc1ccc(/C=C2\Oc3cc(O)ccc3C2=O)cc1O  inhibition at 100 µM          40
2       O=C1/C(=C/c2ccccc2O)Oc2ccccc21  inhibition at 100 µM           1
3     COc1ccc(/C=C2\Oc3ccccc3C2=O)cc1O  inhibition at 100 µM        45.6
4    COc1ccc(/C=C2\Oc3ccccc3C2=O)cc1OC  inhibition at 100 µM        14.2
5     COc1cc(/C=C2\Oc3ccccc3C2=O)ccc1O  inhibition at 100 µM        11.2
6  O=C1/C(=C/c2ccc[nH]2)Oc2c1ccc(O)c2O  inhibition at 100 µM        27.5

Now consider the entry below.
Exercise: I would be grateful if you could share the reported inhibition at 100 µM for `O=C1/C(=C/c2ccc[nH]2)Oc2ccccc21` .
Solution: 78.8

Data provenance is ChEMBL document CHEMBL4002617.
